// provenance: a melting point compilation (Tetko et al.; mined from patent text by program, amines drawn as free bases though some values may be those of a salt)

# molecule, melting point
data = [
    ("COc1ccc(C(=O)N2CCc3cc(S(=O)(=O)N4CC(c5ccccc5)NC4=O)ccc32)cc1 (stereo unspecified)", "220 to 222 °C"),
    ("Cc1nc2c(s1)-c1nc(Nc3cccc([N+](=O)[O-])c3)ncc1CC2", "227 to 228 °C"),
    ("O=S1(=O)NCN(CCCCF)c2cc(Cl)c(Cl)cc21", "141 to 143 °C"),
    ("O=C(O)c1ccc(OCCCON=Cc2cc3ccccc3n2Cc2ccccc2)c(-c2ccc(C(F)(F)F)cc2)c1", "196 to 197 °C"),
    ("COc1cc(OC)cc(N2CCN(C(=S)Nc3cc(C)c(C)cc3OC)CC2)c1", "128 to 129 °C"),
    ("O=C(O)c1ccc(C(F)F)c2ccccc12", "179 to 180 °C"),
    ("CCOC(=O)c1nc2c(Cl)nc(Cl)c(Cl)n2c1Cl", "132 °C"),
    ("CN(C)CCNc1ccc(S(C)(=O)=O)cc1[N+](=O)[O-]", "130 to 131 °C"),
    ("COCC(O)Cn1ncc([N+](=O)[O-])n1 (stereo unspecified)", "58.2 to 59 °C"),
    ("COc1ccc(OC2COc3ccc(OCc4nc5cc(F)ccc5s4)cc3C2O)cc1 (stereo unspecified)", "180 to 181 °C"),
    ("Nc1[nH]ncc1-c1cccc(N2CCN(CCO)CC2)c1", "40 to 48 °C"),
    ("Cn1c(=O)c2c(nc3n2CC(O)CN3Cc2ccccc2)n(C)c1=O (stereo unspecified)", "225 to 227 °C"),
    ("CCOC(=O)c1cnc2cc(OC)c(OC)cc2c1", "> 300 °C"),
    ("CC(C#CC1=C(C)C(O)C(O)C1(C)C)=CCO (stereo unspecified)", "121 to 122 °C"),
    ("Cc1ccc(S(=O)(=O)NCCN(C(=O)c2ccccc2C(=O)c2ccccc2)C(C)C)cc1", "135 to 137 °C"),
    ("O=C(c1ccc(F)cc1)C1CCN(CCCn2c(=O)[nH]c3cc(C(F)(F)F)ccc32)CC1", "160 °C"),
    ("CCOC(=O)CCN1CCN(C2=Nc3ccccc3Cc3ccccc32)CC1", "133 to 134 °C"),
    ("CCCCCCCCCCCCn1nnc(CC(=O)Nc2c(C(C)C)cccc2C(C)C)n1", "75 to 79 °C"),
    ("COCCc1nc2c(N)nc3c(c2n1CCCNC(=O)N1CCOCC1)CCCC3", "172 to 173 °C"),
    ("CCc1c(OC)nc2nc(-c3noc(C(F)(F)F)n3)cn2c1C", "197 to 200 °C"),
    ("CN(C)c1ccc2nc(-c3ccccc3)oc2n1", "127 to 129 °C"),
    ("CCOc1ccc([N+](=O)[O-])c(C=C2NC(=O)NC2=O)c1", "243 to 245 °C"),
    ("O=[N+]([O-])c1ccc(C(Cl)(Cl)Br)cc1", "51.3 to 52.9 °C"),
    ("CCOC(=O)C(=O)c1ccc(OCCCn2c(=O)c3ccccc3c3ccccc32)cc1", "95 to 97 °C"),
    ("O=S(CCc1ccccc1)CCc1ccccc1", "70 to 71 °C"),
    ("Cc1cc(C)c(-n2ccc3c(=O)[nH][nH]c(=O)c32)c(C)c1", "> 300 °C"),
    ("COC(=O)c1cccc(Sc2ccc([N+](=O)[O-])cc2)c1", "98 to 100 °C"),
    ("O=C(NCc1cccnc1)Nc1ccc(S)cc1", "155 to 159 °C"),
    ("CC(C)Cn1nccc1-c1nn(-c2cccc(C(F)(F)F)c2)ccc1=O", "120 to 121 °C"),
    ("Fc1ccc(CC2C=CC(OCc3ccccc3)=C3N=C4CCCCC4=C32)cc1 (stereo unspecified)", "134 to 135 °C"),
    ("O=C(Cc1ccccn1)NC1CCC2(O)C3Cc4ccc(O)c5c4C2(CCN3CC2CC2)C1O5 (stereo unspecified)", "210 to 212 °C"),
    ("CCCCCCCCCN(C)c1ccc(S(=O)(=O)Nc2ccccc2)cc1", "113 to 116 °C"),
    ("CCC(O)c1cccc(S(N)(=O)=O)c1 (stereo unspecified)", "218 to 220 °C"),
    ("C[C@@H](NC(=O)c1c[nH]c2ncc(-c3nn(C)c4cc(F)cc(F)c34)nc12)C(=O)N1CC(C#N)C1", "235 to 265 °C"),
    ("CC(=Cc1ccccc1)c1ccc2c(c1)SC(C)(C)S2", "57 to 58 °C"),
    ("CCN(C(=O)c1cc(N(C)C)ccc1[Si](C)(C)C)C(OC)C(C)(C)C (stereo unspecified)", "96 to 98 °C"),
    ("CC(C)(C)OC(=O)NCCc1cccc(OCCC2Oc3ccccc3N(Cc3cccc(Cl)c3)C2=O)c1 (stereo unspecified)", "107 to 108 °C"),
    ("CC(=O)Nc1cc(F)c([N+](=O)[O-])cc1F", "188 to 189 °C"),
    ("CCCCCCCC(=O)OCc1ccccc1-c1nc(-c2cccc(OCC)c2)n[nH]1", "87 to 89 °C"),
    ("CCn1cnc(S(=O)(=O)O)c1", "278 °C"),
    ("Nc1nc(Cl)c(C(F)(F)F)cc1Cl", "110 to 112 °C"),
]

====

Reported melting point values for the following molecules.
outcome.measure: melting point

# molecule, outcome.measure, reported
records = [
    ("COCc1c(-c2cc(C)no2)ncc2[nH]c3ccc(OCc4ccccc4)cc3c12", "melting point", "202 to 203 °C"),
    ("CCCCCCOc1ccc(-c2ccc(-c3ccc(CCCC)s3)c(F)c2)cc1", "melting point", "66 °C"),
    ("CC(C)(C)OC(=O)N1CCN(C(=O)c2ccc(-c3[nH]nc4c3C(=O)c3c(NC(=O)NN5CCOCC5)cccc3-4)s2)CC1", "melting point", "225 to 226 °C"),
    ("CCn1c(=O)c2nc(C=NO)cn2c2ccccc21", "melting point", "286 to 288 °C"),
    ("Fc1ccc(Oc2cc3cnc(Cl)nc3cn2)c(F)c1", "melting point", "210 to 212 °C"),
    ("Cc1nc(NC(=O)N(C)C)nc(C)c1Cl", "melting point", "127 to 129 °C"),
    ("Nc1ccc(-c2ncc(C(F)(F)F)cc2Cl)cc1[N+](=O)[O-]", "melting point", "126 to 127 °C"),
    ("O=C(O)CNC=C(Nc1cc(Cl)cc(Cl)c1)[N+](=O)[O-]", "melting point", "207 °C"),
    ("Cc1c(C(O)c2ccccc2)nc2n1CCc1ccccc1C2OC1CCN(C)CC1 (stereo unspecified)", "melting point", "85 °C"),
    ("O=C(O)C1=Cc2cc(C(O)C(F)(F)F)ccc2OC1C(F)(F)F (stereo unspecified)", "melting point", "114 to 120 °C"),
    ("CCC(O)(CC)CC1NC(=O)c2ccccc21 (stereo unspecified)", "melting point", "130 to 132 °C"),
    ("O=C1CSC(c2cccc(Cl)c2)c2cc(C(=O)c3ccc(Cl)cc3)ccc2N1 (stereo unspecified)", "melting point", "222 °C"),
    ("CCOC(=O)c1cnn(-c2cc(Cl)cc(Cl)c2)c1S(C)(=O)=O", "melting point", "179 to 181 °C"),
    ("O=C(Nc1ccc2ccc(Oc3ccccc3)nc2n1)C1=CCC=CC1", "melting point", "95 °C"),
    ("COC(=O)C(=O)c1ccc(OCCCNC(=O)c2ccc3ccccc3c2)cc1", "melting point", "143 to 144 °C"),
    ("Cc1ccc2c(c1)C(C(=O)Nc1ccccc1C(C)C)c1ccccc1CO2 (stereo unspecified)", "melting point", "180 to 181 °C"),
    ("CCCCCCCCCCCCCCC(=O)C(=O)N[C@H](C(=O)NCC(=O)O)C(C)C", "melting point", "87 to 89 °C"),
    ("O=C1CSC=C2c3ccccc3C=CN12", "melting point", "104 to 106 °C"),
    ("CCCCS(=O)(=O)c1ccc(NN)cc1", "melting point", "138 °C"),
    ("CO/C(=C\\c1ccc(OCCc2nc(-c3ccccc3)oc2C)c2ccsc12)C(=O)O", "melting point", "189 to 190 °C"),
    ("O=C(c1ccc(F)c(Cc2ccc(=O)[nH]n2)c1)c1c(Cl)cc(Cl)cc1Cl", "melting point", "185 °C"),
]

====

Reported melting point values for the following molecules.
outcome.measure: melting point (°C)

# molecule, outcome.measure, reported
rows = [
    ("N#Cc1cc([N+](=O)[O-])ccc1OCC(F)(F)F", "melting point", 94),
    ("CCCCC(=O)NC(C(=O)OCC)=C(N)Sc1ccccc1", "melting point", 115),
    ("N#Cc1cccnc1-n1cc(-c2ccc(Oc3ccccc3)cc2)c2c(N)ncnc21", "melting point", 242),
    ("CCCCC(C(=O)O)c1cccc(C(=O)c2cc3cc(C(=O)O)sc3s2)c1 (stereo not drawn)", "melting point", 208),
    ("Cc1cc(F)ccc1-c1cncc(OC2SCC(O)C(O)C2O)c1 (stereo not drawn)", "melting point", 217),
    ("COc1ccc(Cc2cc(C(C)(C)C)c(O)c(C(C)(C)C)c2)cc1", "melting point", 139),
    ("CCCc1c(C(=O)O)c(C(F)F)nc(C(F)(F)F)c1C(=O)O", "melting point", 236),
    ("CC(=O)OC1CSC(Oc2cccnc2)C(OC(C)=O)C1OC(C)=O (stereo not drawn)", "melting point", 147),
    ("Cc1nc(Br)c(Br)n1Cc1cc2c(cc1Cl)OCO2", "melting point", 185),
    ("CCc1ccc(C)c(S(=O)(=O)NC(=O)n2nc(C)n(C)c2=O)c1", "melting point", 145),
]
